target: binding partner of C5A (XPA23); assay: Biacore, K-off
Measured endpoint: fold difference in affinity vs original (fold)
Record the value in fold, omitting the unit from your answer.

>>> value_observed("C5A (XPA23) VH Y107E (antibody, V domains shown) VH: EVQLLESGGGLVQPGGSLRLSCAASGFTFSKYFMFWVRQAPGKGLEWVSVISPSGGMTRYADSVKGRFTISRDNSKNTLYLQMNSLRAEDTAVYYCARVGYGGNSDEWGQGTLVTVSS VL: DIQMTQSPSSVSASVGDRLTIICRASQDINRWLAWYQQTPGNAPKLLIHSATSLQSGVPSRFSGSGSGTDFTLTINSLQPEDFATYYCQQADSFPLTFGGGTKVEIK")
0.9
>>> value_observed("C5A (XPA23) VH N104H (antibody, V domains shown) VH: EVQLLESGGGLVQPGGSLRLSCAASGFTFSKYFMFWVRQAPGKGLEWVSVISPSGGMTRYADSVKGRFTISRDNSKNTLYLQMNSLRAEDTAVYYCARVGYGGHSDYWGQGTLVTVSS VL: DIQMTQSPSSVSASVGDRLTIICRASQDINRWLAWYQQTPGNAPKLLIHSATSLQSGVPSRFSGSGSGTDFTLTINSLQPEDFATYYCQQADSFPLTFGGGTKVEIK")
0.07
>>> value_observed("C5A (XPA23) VH S105N (antibody, V domains shown) VH: EVQLLESGGGLVQPGGSLRLSCAASGFTFSKYFMFWVRQAPGKGLEWVSVISPSGGMTRYADSVKGRFTISRDNSKNTLYLQMNSLRAEDTAVYYCARVGYGGNNDYWGQGTLVTVSS VL: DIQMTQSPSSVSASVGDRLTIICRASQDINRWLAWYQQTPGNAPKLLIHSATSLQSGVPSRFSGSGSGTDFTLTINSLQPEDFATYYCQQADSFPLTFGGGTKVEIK")
0.85
>>> value_observed("C5A (XPA23) VH G55Q (antibody, V domains shown) VH: EVQLLESGGGLVQPGGSLRLSCAASGFTFSKYFMFWVRQAPGKGLEWVSVISPSQGMTRYADSVKGRFTISRDNSKNTLYLQMNSLRAEDTAVYYCARVGYGGNSDYWGQGTLVTVSS VL: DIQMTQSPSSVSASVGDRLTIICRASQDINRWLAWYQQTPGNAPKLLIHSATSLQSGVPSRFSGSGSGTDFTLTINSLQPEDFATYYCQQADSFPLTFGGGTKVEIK")
0.9

Continue with the next binder.
Any idea what its fold difference in affinity vs original is? The binder is C5A (XPA23) VH I51K (antibody, V domains shown) VH: EVQLLESGGGLVQPGGSLRLSCAASGFTFSKYFMFWVRQAPGKGLEWVSVKSPSGGMTRYADSVKGRFTISRDNSKNTLYLQMNSLRAEDTAVYYCARVGYGGNSDYWGQGTLVTVSS VL: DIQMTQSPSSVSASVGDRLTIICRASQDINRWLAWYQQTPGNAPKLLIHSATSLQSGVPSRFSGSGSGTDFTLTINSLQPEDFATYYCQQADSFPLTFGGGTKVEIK
0.11

Attribution: patent US20110118447A1
